T/C by entry:
system: P388 leukemia ip, CD2F1 mice, survival T/C; assay: NCI In Vivo Anticancer Drug Screen. Data for tumor model P388 Leukemia (intraperitoneal) in CD2F1 (CDF1) mice; conditions: endpoint: median survival time; dose: 200.0 mg/kg/injection; schedule: Q04DX003 (ip); vehicle: saline with Tween-80; higher = longer survival
Toxic doses and inconclusive results are not listed.

Reference set, count: 5
[[record]]
compound = "c1ccc2c(c1)nc1snc(-n3ccnc3)n12"
metric_name = "T/C"
data_value = "90 % of control"

[[record]]
compound = "CN(C)[C@@H]1C(=O)C(C(=O)NCNCCCC(=O)O)=C(O)[C@@]2(O)C(=O)C3=C(O)c4c(O)cccc4[C@@](C)(O)[C@H]3C[C@@H]12"
metric_name = "T/C"
data_value = "100 % of control"

[[record]]
compound = "O=C1OC(c2ccc(Cl)cc2)Sc2ccccc21 (stereo unspecified)"
metric_name = "T/C"
data_value = "100 % of control"

[[record]]
compound = "C=CCOc1cccc(OCC=C)c1C"
metric_name = "T/C"
data_value = "100 % of control"

[[record]]
compound = "CC(C)N(C(=S)/N=C1/SCS(=O)(=O)N1C)C(C)C"
metric_name = "T/C"
data_value = "104 % of control"


Record O=[N+]([O-])c1ccccc1O : what is its T/C with P388 leukemia ip, CD2F1 mice, survival T/C? 110 % of control

Record COC(=O)C1=C(C)NC(=O)NC1c1ccc(OC)cc1 (stereo unspecified) : what is its T/C with P388 leukemia ip, CD2F1 mice, survival T/C? 95 % of control

Record O=C(c1ccccc1)C1CCCN(c2ccccc2)S1(=O)=O (stereo unspecified) : what is its T/C with P388 leukemia ip, CD2F1 mice, survival T/C? 104 % of control

Record Cc1ccc(Cl)c([N+](=O)[O-])c1N : what is its T/C with P388 leukemia ip, CD2F1 mice, survival T/C? 104 % of control

Record [N-]=[N+]=NC1(c2ccccc2)C(=O)c2ccccc2C1=O : what is its T/C with P388 leukemia ip, CD2F1 mice, survival T/C? 105 % of control

Record CCCCCC1(c2ccccc2)CCCC(C#N)C1=O (stereo unspecified) : what is its T/C with P388 leukemia ip, CD2F1 mice, survival T/C? 88 % of control

Record C=C(C)C1CC=C(C)CC1 (stereo unspecified) : what is its T/C with P388 leukemia ip, CD2F1 mice, survival T/C? 104 % of control

Record Cc1ccc(-c2cc(Cl)c3cc(S(=O)(=O)F)ccc3n2)cc1 : what is its T/C with P388 leukemia ip, CD2F1 mice, survival T/C? 100 % of control

Record CC1(C)N=C(N)N=C(N)N1c1cccc(CC(=O)Nc2ccc(S(=O)(=O)F)cc2)c1 : what is its T/C with P388 leukemia ip, CD2F1 mice, survival T/C? 122 % of control

Record COC(=O)c1ccccc1N=NNc1ccccc1C(N)=O : what is its T/C with P388 leukemia ip, CD2F1 mice, survival T/C? 97 % of control

Record CC(=O)Nn1cnc2ccccc2c1=O : what is its T/C with P388 leukemia ip, CD2F1 mice, survival T/C? 101 % of control

Record N=C(N)SCCC(=O)Nc1ccccc1 : what is its T/C with P388 leukemia ip, CD2F1 mice, survival T/C? 106 % of control

Record O=C(O)c1cc(I)cc(I)c1 : what is its T/C with P388 leukemia ip, CD2F1 mice, survival T/C? 96 % of control

====

system: P388 leukemia ip, CD2F1 mice, survival T/C; test: NCI In Vivo Anticancer Drug Screen. Data for tumor model P388 Leukemia (intraperitoneal) in CD2F1 (CDF1) mice; conditions: endpoint: median survival time; dose: 6.25 mg/kg/injection; schedule: Q01DX009 (ip); vehicle: saline; higher = longer survival
Inconclusive results and toxic doses are left out.
Metric name: T/C

Reference set, count: 3
[[record]]
compound = "O=C1C[N+]2(CCCCC2)c2ccc(Cl)cc2N1"
data_value = "104 % of control"

[[record]]
compound = "CC[N+](C)(CC)CCNC(=O)Nc1ccc(-c2ccc(NC(=O)NCC[N+](C)(CC)CC)c(OC)c2)cc1OC"
data_value = "98 % of control"

[[record]]
compound = "COc1cc(NCCCCCCCNC(C)C)c2nccc(C)c2c1"
data_value = "102 % of control"


Given the compound CCC(SC)C(=O)N(C)c1ccccc1 (configuration not stated) , what is its reported T/C? 104 % of control

Given the compound O=C(O)C[n+]1ccccc1 , what is its reported T/C? 103 % of control

Given the compound CCN(CC)CCCCCCCNc1cc(OC)cc2c(C)ccnc12 , what is its reported T/C? 90 % of control

Given the compound Nc1nc(Nc2ccc(C3=NCCN3)cc2)nc(Nc2ccc(C3=NCCN3)cc2)n1 , what is its reported T/C? 122 % of control

====

tested on: P388 leukemia ip, CD2F1 mice, survival T/C; assay: NCI In Vivo Anticancer Drug Screen. Data for tumor model P388 Leukemia (intraperitoneal) in CD2F1 (CDF1) mice; settings: endpoint: median survival time; dose: 200.0 mg/kg/injection; schedule: Q01DX005 (ip); vehicle: Klucel (hydroxypropylcellulose) (HPC); higher = longer survival
Inconclusive results and toxic doses are left out.
Metric name: T/C

Reference set, count: 5
[[record]]
compound = "O=C1N(c2ccccc2)N=C2CCCCCCCCCCC12O (stereo not drawn)"
metric_name = "T/C"
data_value = "94 % of control"

[[record]]
compound = "NC(=O)CCSC(N)=S"
metric_name = "T/C"
data_value = "100 % of control"

[[record]]
compound = "CC1(C(Cl)(Cl)Cl)C=CC(=NO)C=C1 (stereo not drawn)"
metric_name = "T/C"
data_value = "110 % of control"

[[record]]
compound = "COc1ccc2oc3cccc(NCCN(C)C)c3c(=O)c2c1"
metric_name = "T/C"
data_value = "107 % of control"

[[record]]
compound = "CC(=O)O[C@H]1CC[C@@]2(C)C(=CC[C@@H]3[C@@H]2CC[C@]2(C)C(=NCCCN4CCOCC4)CC[C@@H]32)C1"
metric_name = "T/C"
data_value = "99 % of control"


Given the compound Nc1ncc2[nH]cnc2n1 , what is its reported T/C? 103 % of control

Given the compound Cc1[nH]n(-c2cc(S(=O)(=O)O)ccc2Cl)c(=O)c1N=Nc1ccc(C(=O)Nc2ccc(S(=O)(=O)O)cc2)cc1 , what is its reported T/C? 99 % of control

Given the compound NCCSSc1ccccc1C(=O)O , what is its reported T/C? 112 % of control

====

T/C by entry:
test system: P388 leukemia ip, CD2F1 mice, survival T/C; assay: NCI In Vivo Anticancer Drug Screen. Data for tumor model P388 Leukemia (intraperitoneal) in CD2F1 (CDF1) mice; settings: endpoint: median survival time; dose: 12.5 mg/kg/injection; schedule: Q01DX009 (ip); vehicle: other; higher = longer survival
Inconclusive results and toxic doses are left out.

Reference set, count: 5
[[record]]
molecule = "CC(=O)N(O)CC(=O)OCc1ccccc1"
data_value = "96 % of control"

[[record]]
molecule = "CNC(=S)NNc1ccccn1"
data_value = "105 % of control"

[[record]]
molecule = "Oc1ccc(N=Cc2ccc3c(c2)OCO3)cc1"
data_value = "109 % of control"

[[record]]
molecule = "COc1ccc2nc3cc(Cl)ccc3c(Nc3cccc(NC(C)=O)c3)c2n1"
data_value = "102 % of control"

[[record]]
molecule = "CCOC(=O)NNS(=O)(=O)CCC(NC(=O)OCc1ccccc1)C(=O)OCc1ccccc1 (stereo unspecified)"
data_value = "96 % of control"


Attention now shifts to the item below.
Given the molecule COc1ccc(-c2c(N)cnc(C(=O)O)c2C)c(OCc2ccccc2)c1OC , what is its reported T/C? 108 % of control

====

system: P388 leukemia ip, CD2F1 mice, survival T/C; test: NCI In Vivo Anticancer Drug Screen. Data for tumor model P388 Leukemia (intraperitoneal) in CD2F1 (CDF1) mice; conditions: endpoint: median survival time; dose: 400.0 mg/kg/injection; schedule: Q01DX001 (ip); vehicle: Klucel (hydroxypropylcellulose) (HPC); higher = longer survival
Toxic doses and inconclusive results are not listed.
T/C by entry:

Reference set, count: 3
[[record]]
compound = "Cc1csc2ccc(Cl)cc12"
experimental_system = "P388 leukemia ip, CD2F1 mice, survival T/C"
data_value = "107 % of control"

[[record]]
compound = "COc1ccc(/C=C/C2=CC(=O)CC(/C=C/c3ccc(OC)c(OC)c3)C2)cc1OC (centres undefined)"
experimental_system = "P388 leukemia ip, CD2F1 mice, survival T/C"
data_value = "97 % of control"

[[record]]
compound = "c1ccc(SCc2ccc3c(c2)OCO3)cc1"
experimental_system = "P388 leukemia ip, CD2F1 mice, survival T/C"
data_value = "100 % of control"


Attention now shifts to the item below.
Given the compound Cc1ccccc1C(=O)N1C(=O)Cc2ccccc21 , what is its reported T/C? 90 % of control
